Assay: in vitro
Settings: male, Sprague-Dawley, rat, s9, pH 7.4, CLint +NADPH
Assay Endpoint: CLint scaled at 1 μM (mL/min/kg)
Give bare numbers, in mL/min/kg.

CLint scaled at 1 μM in this record for Nc1nc(OCc2ccccc2)c2[nH]cnc2n1 : 6.59

====

Test: Incubations with human hepatic S9
Conditions: human hepatic S9; method A (eq. 4)
Assay Endpoint: Fm,AO Method A (fraction metabolized by AO)
Answers are plain numbers.

Look over these answered cases.
| Compound | Assay Value |
| --- | --- |
| CN1CCC(Nc2ncc3ncnc(Nc4ccc(F)c(Cl)c4)c3n2)CC1 [BIBX1382] | 0.92 |
| N=C(N)NC(=O)c1cnn(-c2cccc3ncccc23)c1C1CC1 [Zoniporide] | 0.77 |
| Cn1cc(-c2ccc3nnc(Sc4ccc5ncccc5c4)n3n2)cn1 [SGX523] | 0.36 |

Consider the additional compound presented here.
The reported value for CCN(C(C)=O)c1cccc(-c2ccnc3c(C#N)cnn23)c1 [Zaleplon, zaleplon] in terms of Fm,AO Method A (fraction metabolized by AO) is 1

====

Test: in vitro
Conditions: male, rhesus monkey, s9, pH 7.4, CLint −NADPH
Assay Endpoint: CLint scaled at 1 μM (mL/min/kg)
Give bare numbers, in mL/min/kg.

Form field CLint scaled at 1 μM, entry Nc1nc(OCc2ccccc2)c2[nH]cnc2n1 : 21.3

====

Assay: in vitro
Settings: male, Hartley, guinea pig, s9, pH 7.4, CLint −NADPH
Assay Endpoint: CLint scaled at 1 μM (mL/min/kg)
Answers are plain numbers, in mL/min/kg.

Lab note: measured CLint scaled at 1 μM of Nc1nc(OCc2ccccc2)c2[nH]cnc2n1 was 48.7

====

Assay: Incubations with guinea pig hepatic S9
Settings: guinea pig hepatic S9; method A (eq. 4)
Assay Endpoint: Fm,AO Method A (fraction metabolized by AO)

Below, 3 molecules whose answers are already recorded.
| Molecule | Assay Value |
| --- | --- |
| CN1CCC(Nc2ncc3ncnc(Nc4ccc(F)c(Cl)c4)c3n2)CC1 | 0.65 |
| N=C(N)NC(=O)c1cnn(-c2cccc3ncccc23)c1C1CC1 [Zoniporide] | 0.84 |
| Cn1cc(-c2ccc3nnc(Sc4ccc5ncccc5c4)n3n2)cn1 | 0.23 |

# Fm,AO Method A (fraction metabolized by AO) of CCN(C(C)=O)c1cccc(-c2ccnc3c(C#N)cnn23)c1 = 1

====

Experiment: Incubations with mouse hepatic S9
Conditions: male, CD-1, mouse, hepatic S9, pH 7.4, CLint (intrinsic clearance) in hepatic S9, mouse hepatic S9, in the presence of NADPH; Table 1, triplicate, 2–3 experiments
So I've got a bunch of compounds here, and I need their CLint scaled at 1 μM values.
Give bare numbers, in mL/min/kg.

| Compound | Unit Symbol | CLint scaled at 1 μM |
| --- | --- | --- |
| Cn1cc(-c2ccc3nnc(Sc4ccc5ncccc5c4)n3n2)cn1 | mL/min/kg | 39.4 |

API: the following record is the query input.
CLint scaled at 1 μM measured on N=C(N)NC(=O)c1cnn(-c2cccc3ncccc23)c1C1CC1 [Zoniporide] = 332

====

Assay: Incubations with rat hepatic S9
Conditions: male, Sprague-Dawley, rat, s9, pH 7.4, CLint (intrinsic clearance) in hepatic S9, rat hepatic S9, in the presence of NADPH; Table 1, triplicate, 2–3 experiments
Assay Endpoint: CLint scaled at 1 μM (mL/min/kg)
Answers are plain numbers, in mL/min/kg.

| Compound | Assay Endpoint | Assay Value |
| --- | --- | --- |
| CCN(C(C)=O)c1cccc(-c2ccnc3c(C#N)cnn23)c1 [Zaleplon, zaleplon] | CLint scaled at 1 μM | 15.6 |

We now examine a further compound.
Per the records, this compound ( CN1CCC(Nc2ncc3ncnc(Nc4ccc(F)c(Cl)c4)c3n2)CC1 [BIBX1382] ) has CLint scaled at 1 μM equal to 30.7

====

Assay: Incubations with cynomolgus monkey hepatic S9
Details: cynomolgus monkey hepatic S9; method A (eq. 4)
Assay Endpoint: Fm,AO Method A (fraction metabolized by AO)
Give bare numbers.

| Molecule | Assay Value |
| --- | --- |
| CN1CCC(Nc2ncc3ncnc(Nc4ccc(F)c(Cl)c4)c3n2)CC1 | 1 |
| CCN(C(C)=O)c1cccc(-c2ccnc3c(C#N)cnn23)c1 | 1 |
| Cn1cc(-c2ccc3nnc(Sc4ccc5ncccc5c4)n3n2)cn1 | 0.58 |

molecule N=C(N)NC(=O)c1cnn(-c2cccc3ncccc23)c1C1CC1 [Zoniporide] , Fm,AO Method A (fraction metabolized by AO) observed: 0.90

====

Assay: in vitro
Details: male, cynomolgus monkey, s9, pH 7.4, CLint −NADPH
Assay Endpoint: CLint scaled at 1 μM (mL/min/kg)
Give bare numbers, in mL/min/kg.

// CLint scaled at 1 μM lookup, molecule = Nc1nc(OCc2ccccc2)c2[nH]cnc2n1 [O^6-benzylguanine] , result: 33.5

====

Test: Incubations with cynomolgus monkey hepatic S9
Conditions: cynomolgus monkey hepatic S9; method B (eq. 5); values > 1 assumed equal to 1
Assay Endpoint: Fm,AO Method B (fraction metabolized by AO)
Answers are plain numbers.

| Compound | Assay Value |
| --- | --- |
| Cn1cc(-c2ccc3nnc(Sc4ccc5ncccc5c4)n3n2)cn1 | 0.68 |
| CCN(C(C)=O)c1cccc(-c2ccnc3c(C#N)cnn23)c1 | 0.70 |

Lab note: N=C(N)NC(=O)c1cnn(-c2cccc3ncccc23)c1C1CC1 [Zoniporide] gave Fm,AO Method B (fraction metabolized by AO) of 1

====

Experiment: Incubations with mouse hepatic S9
Conditions: male, CD-1, mouse, s9, pH 7.4, CLint (intrinsic clearance) in hepatic S9, mouse hepatic S9, in the presence of NADPH; Table 1, triplicate, 2–3 experiments
I'd appreciate it if you could supply CLint scaled at 1 μM values for the items below.
Give bare numbers, in mL/min/kg.

| Compound | Assay Value |
| --- | --- |
| CN1CCC(Nc2ncc3ncnc(Nc4ccc(F)c(Cl)c4)c3n2)CC1 [BIBX1382] | 33.2 |

Quick note, CLint scaled at 1 μM for CCN(C(C)=O)c1cccc(-c2ccnc3c(C#N)cnn23)c1 [Zaleplon, zaleplon] landed at 24.4

====

Experiment: in vitro
Conditions: male, cynomolgus monkey, s9, pH 7.4, CLint +NADPH
Assay Endpoint: CLint scaled at 1 μM (mL/min/kg)
Answers are plain numbers, in mL/min/kg.

Short answer for Nc1nc(OCc2ccccc2)c2[nH]cnc2n1 : CLint scaled at 1 μM was 35.6

====

Experiment: Incubations with rhesus monkey hepatic S9
Settings: rhesus monkey hepatic S9; method B (eq. 5); values > 1 assumed equal to 1
Assay Endpoint: Fm,AO Method B (fraction metabolized by AO)
One number for each entry.

Some solved cases for reference:
| Smiles Repr | Assay Value |
| --- | --- |
| CCN(C(C)=O)c1cccc(-c2ccnc3c(C#N)cnn23)c1 | 0.65 |
| CN1CCC(Nc2ncc3ncnc(Nc4ccc(F)c(Cl)c4)c3n2)CC1 | 0.86 |

Memo: Cn1cc(-c2ccc3nnc(Sc4ccc5ncccc5c4)n3n2)cn1 , reported Fm,AO Method B (fraction metabolized by AO): 0.14

====

Test: in vitro
Settings: male, CD-1, mouse, s9, pH 7.4, CLint +NADPH
Assay Endpoint: CLint scaled at 1 μM
Report as: number unit

response.value for Nc1nc(OCc2ccccc2)c2[nH]cnc2n1 [O^6-benzylguanine] (field: CLint scaled at 1 μM) = 15.5 mL/min/kg

Numbers sourced from paper PMC6207370.
